molecular target: WT hBChE (human plasma-derived butyrylcholinesterase) (Homo sapiens); construct: we first compared WT human plasma-derived (hBChE) to pBChE; experiment: Inhibition of BTC hydrolysis activity of WT hBChE
Sequence (P06276 29-602): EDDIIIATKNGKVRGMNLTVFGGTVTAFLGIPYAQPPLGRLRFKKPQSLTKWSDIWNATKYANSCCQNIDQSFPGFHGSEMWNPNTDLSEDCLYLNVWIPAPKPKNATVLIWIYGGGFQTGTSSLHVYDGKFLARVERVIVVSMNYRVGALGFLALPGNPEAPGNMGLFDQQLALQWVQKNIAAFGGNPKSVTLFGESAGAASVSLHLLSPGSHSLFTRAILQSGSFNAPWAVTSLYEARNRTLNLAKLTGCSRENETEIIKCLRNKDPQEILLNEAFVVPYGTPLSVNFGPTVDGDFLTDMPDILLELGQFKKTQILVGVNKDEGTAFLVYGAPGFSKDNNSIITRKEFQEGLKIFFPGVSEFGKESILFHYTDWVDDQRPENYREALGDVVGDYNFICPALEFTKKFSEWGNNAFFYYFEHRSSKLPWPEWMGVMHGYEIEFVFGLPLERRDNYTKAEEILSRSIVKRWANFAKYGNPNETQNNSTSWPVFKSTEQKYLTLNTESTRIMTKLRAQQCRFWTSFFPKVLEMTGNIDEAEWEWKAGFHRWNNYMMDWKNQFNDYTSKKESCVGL
quantity: IC50 (nM)
State just the number; it will be interpreted in nM.

Prompt: Given the compound CN(C)C(=O)Oc1cccc([N+](C)(C)C)c1 [Neostigmine] , what is its reported IC50?
Response: 162

====

biological target: WT pBChE (plant-derived human butyrylcholinesterase) (Homo sapiens, UniProt P06276)
Sequence (P06276 29-602): as the sequence (P06276 29-602) above
quantity: pIC50
Conceptually, pIC50 converts a concentration in mol/L into minus its log10.

Prompt: Given the molecule CN(C)C(=O)Oc1cccc([N+](C)(C)C)c1 [Neostigmine] , what is its reported pIC50?
Response: 6.64

====

biological target: pBChEV2 (F227A/S287G/A328W/Y332A) (Homo sapiens, UniProt P06276, A356W/F255A/S315G/Y360A); construct: hexahistidine (C); barley alpha-amylase signal peptide (N); assay: Inhibition of BTC hydrolysis activity of pBChEV2
Sequence (P06276 29-602 F255A/S315G/A356W/Y360A): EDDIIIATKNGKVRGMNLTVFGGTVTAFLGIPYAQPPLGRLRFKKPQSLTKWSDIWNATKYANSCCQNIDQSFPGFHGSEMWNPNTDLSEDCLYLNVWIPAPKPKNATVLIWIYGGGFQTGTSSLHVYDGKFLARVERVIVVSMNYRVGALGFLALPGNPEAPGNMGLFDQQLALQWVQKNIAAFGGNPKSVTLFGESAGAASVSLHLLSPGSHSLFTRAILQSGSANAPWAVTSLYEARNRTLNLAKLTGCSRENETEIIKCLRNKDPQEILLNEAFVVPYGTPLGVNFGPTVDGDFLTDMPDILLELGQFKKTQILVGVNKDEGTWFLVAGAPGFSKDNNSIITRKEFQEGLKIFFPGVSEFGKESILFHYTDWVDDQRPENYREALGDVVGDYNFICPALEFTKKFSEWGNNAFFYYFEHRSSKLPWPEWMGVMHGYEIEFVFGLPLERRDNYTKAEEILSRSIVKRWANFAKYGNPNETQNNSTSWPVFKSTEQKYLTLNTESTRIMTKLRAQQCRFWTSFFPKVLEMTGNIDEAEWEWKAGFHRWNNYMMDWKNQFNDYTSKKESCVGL
quantity: IC50 (nM)
State just the number; it will be interpreted in nM.

Prompt: Given the compound `CN(C)C(=O)Oc1cccc([N+](C)(C)C)c1` , what is its reported IC50?
Response: 17.8

====

biological target: pBChEV4 (A199S/F227A/S287G/A328W/Y332G) (Homo sapiens, UniProt P06276, A227S/A356W/F255A/S315G/Y360G); construct: hexahistidine (C); barley alpha-amylase signal peptide (N); assay: Inhibition of BTC hydrolysis activity of pBChEV4
quantity: pIC50
Conceptually, pIC50 converts a concentration in mol/L into minus its log10.

Prompt: Given the compound `CN(C)C(=O)Oc1cccc([N+](C)(C)C)c1` , what is its reported pIC50?
Response: 6.81

====

molecular target: pBChEV3 (A199S/S287G/A328W/Y332G) (Homo sapiens, UniProt P06276, A227S/A356W/S315G/Y360G); construct: hexahistidine (C); barley alpha-amylase signal peptide (N); test: Inhibition of BTC hydrolysis activity of pBChEV3
Sequence (P06276 29-602 A227S/S315G/A356W/Y360G): as the sequence (P06276 29-602) above, with A199S, S287G, A328W, Y332G counted along it
quantity: pIC50
Conceptually, pIC50 converts a concentration in mol/L into minus its log10.

Prompt: I'm curious: which pIC50 was measured for `CN(C)C(=O)Oc1cccc([N+](C)(C)C)c1` tested on pBChEV3 (A199S/S287G/A328W/Y332G) (Homo sapiens, UniProt P06276, A227S/A356W/S315G/Y360G)?
Response: 6.69
